Data origin, for the record: paper PMC9062502

# experimental system: xanthine oxidase (Bos taurus)
# method notes: Fluorescence-quenching binding to xanthine oxidase
# condition summary: xanthine oxidase 1.0 μmol L^−1 in PBS, 25 °C, λex 280 nm, emission 335 nm
experimental readout: Affinity K sv (dynamic quenching constant)

compound: O=c1cc(-c2ccccc2)oc2ccccc12 [Flavone]
result: 0.0552 10^6

Name the recorded Affinity K sv (dynamic quenching constant) of the compound listed here: O=c1cc(-c2ccc(O)cc2)oc2cc(O)cc(O)c12 [Apigenin] 0.0285 10^6

Name the recorded Affinity K sv (dynamic quenching constant) of the compound listed here: C[C@@H]1O[C@@H](OC[C@H]2O[C@@H](Oc3c(-c4ccc(O)c(O)c4)oc4cc(O)cc(O)c4c3=O)[C@H](O)[C@@H](O)[C@@H]2O)[C@H](O)[C@H](O)[C@H]1O [Rutin] 0.0532 10^6

Name the recorded Affinity K sv (dynamic quenching constant) of the compound listed here: O=c1c(-c2ccc(O)cc2)coc2cc(O)ccc12 [Daidzein] 0.0230 10^6

Name the recorded Affinity K sv (dynamic quenching constant) of the compound listed here: O=c1cc(-c2ccc(O)c(O)c2)oc2cc(O)cc(O)c12 [Luteolin] 0.0926 10^6

----------
# experimental system: xanthine oxidase (Bos taurus, UniProt P80457)
# Sequence (P80457 2-1332): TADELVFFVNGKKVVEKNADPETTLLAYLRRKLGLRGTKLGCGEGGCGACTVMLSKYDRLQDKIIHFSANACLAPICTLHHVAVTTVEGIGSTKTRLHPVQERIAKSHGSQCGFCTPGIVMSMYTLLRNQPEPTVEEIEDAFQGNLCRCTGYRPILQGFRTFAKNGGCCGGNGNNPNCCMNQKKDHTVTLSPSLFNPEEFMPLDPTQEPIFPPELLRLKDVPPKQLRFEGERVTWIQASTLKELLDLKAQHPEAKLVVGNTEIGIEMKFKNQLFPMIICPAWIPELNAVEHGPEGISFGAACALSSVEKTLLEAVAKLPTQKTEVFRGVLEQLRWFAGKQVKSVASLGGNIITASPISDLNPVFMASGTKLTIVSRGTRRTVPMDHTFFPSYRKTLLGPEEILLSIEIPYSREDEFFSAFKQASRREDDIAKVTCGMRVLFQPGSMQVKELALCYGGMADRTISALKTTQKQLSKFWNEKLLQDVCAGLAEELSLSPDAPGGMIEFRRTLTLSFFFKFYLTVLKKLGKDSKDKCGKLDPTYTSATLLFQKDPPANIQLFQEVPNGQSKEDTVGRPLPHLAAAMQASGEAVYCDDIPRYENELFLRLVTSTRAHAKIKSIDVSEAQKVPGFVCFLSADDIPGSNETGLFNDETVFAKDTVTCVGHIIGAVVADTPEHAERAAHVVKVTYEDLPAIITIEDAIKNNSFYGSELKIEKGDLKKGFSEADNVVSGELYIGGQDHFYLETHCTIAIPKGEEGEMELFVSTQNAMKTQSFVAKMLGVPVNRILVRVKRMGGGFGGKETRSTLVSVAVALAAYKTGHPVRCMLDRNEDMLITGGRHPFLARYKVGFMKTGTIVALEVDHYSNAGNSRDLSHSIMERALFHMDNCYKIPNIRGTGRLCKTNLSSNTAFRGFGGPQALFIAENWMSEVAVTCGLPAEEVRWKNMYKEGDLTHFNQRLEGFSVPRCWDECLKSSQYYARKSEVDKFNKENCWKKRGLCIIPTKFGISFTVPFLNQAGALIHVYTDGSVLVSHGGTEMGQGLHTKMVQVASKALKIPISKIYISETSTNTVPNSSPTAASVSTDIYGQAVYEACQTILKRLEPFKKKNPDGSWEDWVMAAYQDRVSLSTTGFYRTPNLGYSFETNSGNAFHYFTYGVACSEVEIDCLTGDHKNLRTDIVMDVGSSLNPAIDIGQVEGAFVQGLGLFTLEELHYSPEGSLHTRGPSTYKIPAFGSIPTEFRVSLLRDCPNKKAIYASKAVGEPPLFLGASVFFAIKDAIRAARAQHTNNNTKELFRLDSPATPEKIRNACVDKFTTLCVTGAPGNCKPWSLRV
# method notes: Fluorescence-quenching binding to xanthine oxidase
# condition summary: xanthine oxidase 1.0 μmol L^−1 in PBS, 25 °C, λex 280 nm, emission 335 nm
Affinity K sv (dynamic quenching constant) for assorted compounds

compound: O=C1c2c(O)cc(O)cc2O[C@H](c2cc(O)c(O)c(O)c2)[C@H]1O [Dihydromyricetin]
result: 0.0470 10^6

Name the recorded Affinity K sv (dynamic quenching constant) of the compound listed here: O=C(O)[C@H]1O[C@@H](Oc2cc3oc(-c4ccccc4)cc(=O)c3c(O)c2O)[C@H](O)[C@@H](O)[C@@H]1O 0.3668 10^6

Name the recorded Affinity K sv (dynamic quenching constant) of the compound listed here: COc1ccc(-c2cc(=O)c3c(OC)c(OC)c(OC)c(OC)c3o2)cc1OC 0.9637 10^6

Name the recorded Affinity K sv (dynamic quenching constant) of the compound listed here: COc1c(O)cc2occ(-c3ccc(O)cc3)c(=O)c2c1O 0.0644 10^6

Name the recorded Affinity K sv (dynamic quenching constant) of the compound listed here: O=c1c(O)c(-c2ccc(O)c(O)c2)oc2cc(O)ccc12 0.0729 10^6

Name the recorded Affinity K sv (dynamic quenching constant) of the compound listed here: O=c1c(-c2ccc(O)cc2)coc2c([C@@H]3O[C@H](CO)[C@@H](O)[C@H](O)[C@H]3O)c(O)ccc12 0.0290 10^6

Name the recorded Affinity K sv (dynamic quenching constant) of the compound listed here: O=c1c(O)c(-c2ccc(O)cc2)oc2cc(O)cc(O)c12 0.0225 10^6

Name the recorded Affinity K sv (dynamic quenching constant) of the compound listed here: O=c1cc(-c2ccccc2)oc2cc(O)cc(O)c12 0.0195 10^6

Name the recorded Affinity K sv (dynamic quenching constant) of the compound listed here: O=c1c(O)c(-c2cc(O)c(O)c(O)c2)oc2cc(O)cc(O)c12 0.0294 10^6

Name the recorded Affinity K sv (dynamic quenching constant) of the compound listed here: O=C(O[C@@H]1Cc2c(O)cc(O)cc2O[C@@H]1c1cc(O)c(O)c(O)c1)c1cc(O)c(O)c(O)c1 [EGCG (2,3-cis), (−)-epigallocatechin gallate] 0.0226 10^6
